Cited source: patent US20240180883A1

# assay_notes: Phase 1 hepatic impairment PK study, single 100 mg dose
# Assay type: in vivo, human
# measurement_context: both sexes, human, plasma, po, 100 mg, 100 mg single oral dose; mild hepatic impairment; read-out: Vz/F, mean ±SD
measured_attribute: Vd/F (L)
A number alone suffices; assume L.

Tell me measured Vd/F for C[C@@H]1[C@H](c2ccccc2)C[C@H](NC(=O)c2cnc3c(c2)C[C@@]2(C3)C(=O)Nc3ncccc32)C(=O)N1CC(F)(F)F [ubrogepant] please. 559

###

# assay_notes: Study A: drug interaction PK with verapamil or ketoconazole
# Type: in vivo, human
# measurement_context: human, plasma, oral, ubrogepant 20 mg with verapamil 240 mg; read-out: AUC0-∞, AM
# Text: Study A (verapamil and ketoconazole) comprised 3 treatment periods. Healthy adults aged 19-50 years for Study A and 18-45 years for Study B were eligible to participate. […] For study B, participants had to have a BMI between 18.0 and 30 kg/m^2. Exclusion criteria for both studies included hypersensitivity to any study drug; exposure to hepatitis B virus, hepatitis C virus, or HIV; or use of any drug or substance known to affect CYP enzymes or P-gp.
measured_attribute: AUC(0-inf) (ng·h/mL)
A number alone suffices; assume ng·h/mL.

Tell me measured AUC(0-inf) for `C[C@@H]1[C@H](c2ccccc2)C[C@H](NC(=O)c2cnc3c(c2)C[C@@]2(C3)C(=O)Nc3ncccc32)C(=O)N1CC(F)(F)F` please. 742

###

# assay_notes: Study A: drug interaction PK with verapamil or ketoconazole
# Assay type: in vivo, human
# measurement_context: human, plasma, oral, 20 mg, ubrogepant 20 mg alone; read-out: AUC0-∞, mean (SD)
measured_attribute: AUC(0-inf) (ng·h/mL)
A number alone suffices; assume ng·h/mL.

Tell me measured AUC(0-inf) for `C[C@@H]1[C@H](c2ccccc2)C[C@H](NC(=O)c2cnc3c(c2)C[C@@]2(C3)C(=O)Nc3ncccc32)C(=O)N1CC(F)(F)F` please. 213

###

# assay_notes: Phase 1 hepatic impairment PK study, single 100 mg dose
# Format: in vivo, human
# measurement_context: both sexes, human, plasma, po, 100 mg, 100 mg single oral dose; moderate hepatic impairment; read-out: Tmax, median (min-max)
measured_attribute: Tmax (h)
A number alone suffices; assume h.

Tell me measured Tmax for `C[C@@H]1[C@H](c2ccccc2)C[C@H](NC(=O)c2cnc3c(c2)C[C@@]2(C3)C(=O)Nc3ncccc32)C(=O)N1CC(F)(F)F` please. 2

###

# assay_notes: Phase 1 food effect study, 100 mg tablet fed vs fasted
# Type: in vivo, human
# measurement_context: both sexes, human, plasma, oral, 100 mg, 1 × 100 mg tablet, fed; read-out: Cmax, geometric mean (geometric CV %)
# Experimental: The treatments were administered in 1 of 2 sequences in periods 1 and 2 with a washout period of at least 7 days between each treatment. Eighteen healthy participants with a mean age of 28.4 years (range: 20 to 39 years) were enrolled. The majority of participants were male (14 of 18, 77.8%). […] Mean (SD) weight was 75.99 ([…]) kg and mean (SD) BMI was 25.03 (3.290) kg/m2. […]
measured_attribute: Cmax (ng/mL)
A number alone suffices; assume ng/mL.

Tell me measured Cmax for `C[C@@H]1[C@H](c2ccccc2)C[C@H](NC(=O)c2cnc3c(c2)C[C@@]2(C3)C(=O)Nc3ncccc32)C(=O)N1CC(F)(F)F` please. 262
